Assay text: UV-Vis absorption spectra in solvents
Assay type: physicochemical
Conditions: CH2Cl2
Catalogue of Absorption Maximum Wavelength λ max values
Please answer using a numeric value trailed by its unit.

Past entries and their recorded results:
# Molecule, Absorption Maximum Wavelength λ max
data = [
    ("CN(C)c1ccc(C2=Cc3ccccc3P2(=O)c2ccccc2)cc1 (stereo not shown)", "412 nm"),
    ("O=P1(c2ccccc2)C(c2ccc(N(c3ccccc3)c3ccccc3)cc2)=Cc2ccccc21 (stereo not shown)", "413 nm"),
    ("O=P1(c2ccccc2)C(c2ccc(N(c3ccccc3)c3ccccc3)cc2)=C(c2ccccc2)c2ccccc21 (stereo not shown)", "416 nm"),
]

Moving on to another molecule below.
[in] I have this molecule here, O=P1(c2ccccc2)C(c2ccc(N(c3ccccc3)c3ccccc3)cc2)=Cc2cc3ccccc3cc21 (stereo not shown) , and I need its recorded Absorption Maximum Wavelength λ max.
[out] 414 nm

Source: patent US9951094B2
